- TESTED TARGET: human PDHK2 (hPDHK2) (Homo sapiens (Human))
- TEST DESCRIPTION: Inhibitory action of PDHK2 activity (PDH/hPDHK2 complex, residual PDH activity by NADH absorbance at 340 nm)
- MEASUREMENT PARAMETERS: FLAG-tagged recombinant hPDHK2 with porcine heart PDH complex; PDHK reaction 45 min at room temperature
Field 'label' (enum: true (1) / false (0)). Set to true (1) when IC50 is strictly under 20 nM; else false (0).

Below are worked cases with known answers.
1. C[C@H]1Cn2nc(OCC34CCC(C#N)(CC3)C4)cc2-c2cnc([C@@](C)(O)C(F)(F)F)n21: false (0)
2. C[C@H]1Cn2nc(C34CC(C#N)(C3)C4)cc2-c2cnnc([C@@](C)(O)C(F)(F)F)c21 (racemic): false (0)
3. C[C@H]1Cn2nc(N3CC4CC3C4)cc2-c2cnc([C@@](C)(O)C(F)(F)F)n21: true (1)

## Input Lab note: IC50 threshold 20 nM. Does this compound come in strictly under it? C[C@H]1Cc2nn(C3CC(C#N)C3)cc2-c2onc([C@@](C)(O)C(F)(F)F)c21 (stereo in doubt) [Example 30]
## Output false (0)

## Input For this compound, is IC50 lower than 20 nM? C[C@H]1Cn2nc(OCc3ccccc3)cc2-c2onc([C@@](C)(O)C(F)(F)F)c21 (racemic)
## Output true (1)

## Input For C[C@H]1Cn2nc(C34CCC(C#N)(CC3)C4)cc2-c2cnc([C@@](C)(O)C(F)(F)F)n21 , is the recorded IC50 below the cut-off of 20 nM?
## Output true (1)

## Input API: query returns whether the compound falls strictly under 20 nM in IC50. Query: C[C@H]1Cn2nc(C34CCC(C(C)(C)O)(CC3)CO4)cc2-c2cnc([C@@](C)(O)C(F)(F)F)n21
## Output true (1)

====

Recorded pIC50 values for a group of compounds are listed next.
- TESTED TARGET: human PDHK2 (hPDHK2) (Homo sapiens (Human))
- TEST DESCRIPTION: Inhibitory action of PDHK2 activity (PDH/hPDHK2 complex, residual PDH activity by NADH absorbance at 340 nm)
- Assay type: biochemical
- MEASUREMENT PARAMETERS: FLAG-tagged recombinant hPDHK2 with porcine heart PDH complex; PDHK reaction 45 min at room temperature
The scale used: pIC50 is minus the common logarithm of the concentration in molar units.

Consider the reported pIC50 for these compounds:
1) C[C@H]1Cc2c(cnn2CC#N)-c2onc([C@@](C)(O)C(F)(F)F)c21 (racemic) [Example 50]: 7.84
2) C[C@H]1Cc2[nH]ncc2-c2onc([C@@](C)(O)C(F)(F)F)c21 [Example 28]: 8.07
3) C[C@H]1Cc2nn(CC(C)(C)O)cc2-c2onc([C@@](C)(O)C(F)(F)F)c21 (racemic) [Example 38]: 7.60
4) C[C@H]1Cn2nc(C3CCOCC3)cc2-c2onc([C@@](C)(O)C(F)(F)F)c21 [Example 61]: 8.01
5) C[C@H]1Cn2nc(C34CCC(C#N)(CC3)CC4)cc2-c2cnc([C@@](C)(O)C(F)(F)F)n21 [Example 71]: 8.18
6) C[C@H]1Cn2nc(C34CC(C(C)(C)O)(C3)C4)cc2-c2cnc([C@@](C)(O)C(F)(F)F)n21 [Example 76]: 7.84
7) C[C@H]1Cn2nc(OCC3(C#N)CC3)cc2-c2onc([C@@](C)(O)C(F)(F)F)c21 [Example 33]: 8.06
8) C[C@H]1Cn2nc(N3C[C@@H]4C[C@H]3CO4)cc2-c2cnc([C@@](C)(O)C(F)(F)F)n21 [Example 81]: 7.53
9) C[C@H]1Cc2c(cnn2[C@H]2C[C@](C)(C#N)C2)-c2onc([C@@](C)(O)C(F)(F)F)c21 (racemic) [Example 53]: 8.06
10) C[C@H]1Cc2nn(C)cc2-c2onc([C@@](C)(O)C(F)(F)F)c21 (racemic) [Example 23]: 7.73

## Input Please respond with reported pIC50 (system human PDHK2 (hPDHK2) (Homo sapiens (Human))) for C[C@H]1Cn2c(nnc2C23CC(C(F)(F)F)(C2)C3)-c2onc([C@@](C)(O)C(F)(F)F)c21 [Example 9] .
## Output 8.02

## Input Fetch value of pIC50 on human PDHK2 (hPDHK2) (Homo sapiens (Human)) for C[C@H]1Cn2nc(O[C@H]3CCOC3)cc2-c2onc([C@@](C)(O)C(F)(F)F)c21 (racemic) [Example 36] .
## Output 7.85

## Input With human PDHK2 (hPDHK2) (Homo sapiens (Human)) as the test system, provide measured pIC50 for this compound: C[C@H]1Cn2nc(OC3CCOCC3)cc2-c2onc([C@@](C)(O)C(F)(F)F)c21 (racemic) [Example 35]
## Output 7.75

## Input Fetch value of pIC50 on human PDHK2 (hPDHK2) (Homo sapiens (Human)) for C[C@H]1Cn2nc(O[C@H]3CC[C@](C)(O)CC3)cc2-c2onc([C@@](C)(O)C(F)(F)F)c21 [Example 65] .
## Output 8.18

## Input Quote human PDHK2 (hPDHK2) (Homo sapiens (Human)) pIC50 for entry C[C@H]1Cc2c(cnn2[C@H]2C[C@@](C)(C#N)C2)-c2onc([C@@](C)(O)C(F)(F)F)c21 (racemic) [Example 57] .
## Output 7.55
